- assay.text: Biodistribution, CHO-K1-GRPR + CHO-K1-PSMA dual xenograft mice
- condition.set: female, NOD SCID, mouse, bone, intravenous, 1 nmol, total radioactivity, Biodistribution: Bone, Mouse #8; dual tracer; dual xenograft; 25.8 h p.i.; 1.00 nmol
readout: tissue uptake at 25.8 h (%ID/g)
Note: unit %ID/g is implicit; provide only the numeric part.

## Input Fill in: tissue uptake at 25.8 h of CC(C)C[C@H](NC(=O)C[C@H](O)[C@H](CC(C)C)NC(=O)[C@H](Cc1c[nH]cn1)NC(=O)CNC(=O)[C@@H](NC(=O)[C@H](C)NC(=O)[C@H](Cc1c[nH]c2ccccc12)NC(=O)[C@H](CCC(N)=O)NC(=O)[C@@H](Cc1ccccc1)NC(=O)CN1CCC(NC(=O)CN2CCN(CC(=O)O)CCN(CC(=O)O)CCN(CC(=O)O)CC2)CC1)C(C)C)C(N)=O [[^111In]In-RM2, metal not drawn] is ___
## Output 0.06

###

- assay.text: Biodistribution, CHO-K1-GRPR + CHO-K1-PSMA dual xenograft mice
- condition.set: female, NOD SCID, mouse, liver, intravenous, 1.08 nmol, total radioactivity, Biodistribution: Liver, Mouse #6; single tracer; dual xenograft; 25.2 h p.i.; 1.08 nmol
readout: tissue uptake at 25.2 h (%ID/g)
Note: unit %ID/g is implicit; provide only the numeric part.

## Input Fill in: tissue uptake at 25.2 h of CC(C)C[C@H](NC(=O)C[C@H](O)[C@H](CC(C)C)NC(=O)[C@H](Cc1c[nH]cn1)NC(=O)CNC(=O)[C@@H](NC(=O)[C@H](C)NC(=O)[C@H](Cc1c[nH]c2ccccc12)NC(=O)[C@H](CCC(N)=O)NC(=O)[C@@H](Cc1ccccc1)NC(=O)CN1CCC(NC(=O)CN2CCN(CC(=O)O)CCN(CC(=O)O)CCN(CC(=O)O)CC2)CC1)C(C)C)C(N)=O [[^111In]In-RM2, metal not drawn] is ___
## Output 0.2

###

- assay.text: Biodistribution, PC-3 xenograft mice
- Format: in vivo, NOD SCID mice
- condition.set: female, NOD SCID, intestine (empty), intravenous, total radioactivity; Mouse #1; single tracer; PC-3 xenograft; 25.1 h p.i.; 1.34 nmol; read-out: Biodistribution: Intestine (empty)
readout: tissue uptake at 25.1 h (%ID/g)
Note: unit %ID/g is implicit; provide only the numeric part.

## Input Fill in: tissue uptake at 25.1 h of CC(C)C[C@H](NC(=O)C[C@H](O)[C@H](CC(C)C)NC(=O)[C@H](Cc1c[nH]cn1)NC(=O)CNC(=O)[C@@H](NC(=O)[C@H](C)NC(=O)[C@H](Cc1c[nH]c2ccccc12)NC(=O)[C@H](CCC(N)=O)NC(=O)[C@@H](Cc1ccccc1)NC(=O)CN1CCC(NC(=O)CN2CCN(CC(=O)O)CCN(CC(=O)O)CCN(CC(=O)O)CC2)CC1)C(C)C)C(N)=O [[^111In]In-RM2, metal not drawn] is ___
## Output 0.08

###

- assay.text: Biodistribution, CHO-K1-GRPR + CHO-K1-PSMA dual xenograft mice
- condition.set: female, NOD SCID, mouse, liver, intravenous, 1 nmol, total radioactivity, Biodistribution: Liver, Mouse #8; dual tracer; dual xenograft; 25.8 h p.i.; 1.00 nmol
readout: tissue uptake at 25.8 h (%ID/g)
Note: unit %ID/g is implicit; provide only the numeric part.

## Input Fill in: tissue uptake at 25.8 h of CC(C)C[C@H](NC(=O)C[C@H](O)[C@H](CC(C)C)NC(=O)[C@H](Cc1c[nH]cn1)NC(=O)CNC(=O)[C@@H](NC(=O)[C@H](C)NC(=O)[C@H](Cc1c[nH]c2ccccc12)NC(=O)[C@H](CCC(N)=O)NC(=O)[C@@H](Cc1ccccc1)NC(=O)CN1CCC(NC(=O)CN2CCN(CC(=O)O)CCN(CC(=O)O)CCN(CC(=O)O)CC2)CC1)C(C)C)C(N)=O [[^111In]In-RM2, metal not drawn] is ___
## Output 0.28

###

- assay.text: Biodistribution, CHO-K1-GRPR + CHO-K1-PSMA dual xenograft mice
- condition.set: female, NOD SCID, mouse, intestine (empty), intravenous, 2.69 nmol, total radioactivity, Biodistribution: Intestine (empty), Mouse #9; dual tracer; dual xenograft; 17.6 h p.i.; 2.69 nmol
readout: tissue uptake at 17.6 h

## Input Fill in: tissue uptake at 17.6 h of CC(C)C[C@H](NC(=O)C[C@H](O)[C@H](CC(C)C)NC(=O)[C@H](Cc1c[nH]cn1)NC(=O)CNC(=O)[C@@H](NC(=O)[C@H](C)NC(=O)[C@H](Cc1c[nH]c2ccccc12)NC(=O)[C@H](CCC(N)=O)NC(=O)[C@@H](Cc1ccccc1)NC(=O)CN1CCC(NC(=O)CN2CCN(CC(=O)O)CCN(CC(=O)O)CCN(CC(=O)O)CC2)CC1)C(C)C)C(N)=O [[^111In]In-RM2, metal not drawn] is ___
## Output 0.04 %ID/g

###

- assay.text: Biodistribution, CHO-K1-GRPR + CHO-K1-PSMA dual xenograft mice
- condition.set: female, NOD SCID, mouse, spleen, intravenous, 1.41 nmol, total radioactivity, Biodistribution: Spleen, Mouse #7; single tracer; dual xenograft; 24.2 h p.i.; 1.41 nmol
readout: tissue uptake at 24.2 h
Quick note: number first, unit second.

## Input Fill in: tissue uptake at 24.2 h of CC(C)C[C@H](NC(=O)C[C@H](O)[C@H](CC(C)C)NC(=O)[C@H](Cc1c[nH]cn1)NC(=O)CNC(=O)[C@@H](NC(=O)[C@H](C)NC(=O)[C@H](Cc1c[nH]c2ccccc12)NC(=O)[C@H](CCC(N)=O)NC(=O)[C@@H](Cc1ccccc1)NC(=O)CN1CCC(NC(=O)CN2CCN(CC(=O)O)CCN(CC(=O)O)CCN(CC(=O)O)CC2)CC1)C(C)C)C(N)=O [[^111In]In-RM2, metal not drawn] is ___
## Output 0.08 %ID/g

###

- assay.text: Biodistribution, PC-3 xenograft mice
- Type: in vivo, NOD SCID mice
- condition.set: female, NOD SCID, colon (empty), intravenous, total radioactivity; Mouse #2; single tracer; PC-3 xenograft; 7.3 h p.i.; 1.43 nmol; read-out: Biodistribution: Colon (empty)
- From the text: Tumor growth and body weight were monitored daily. […] 3.6.1 Biodistribution studies xenograft-bearing female NOD SCID mice. […]
readout: tissue uptake at 7.3 h (%ID/g)
Note: unit %ID/g is implicit; provide only the numeric part.

## Input Fill in: tissue uptake at 7.3 h of CC(C)C[C@H](NC(=O)C[C@H](O)[C@H](CC(C)C)NC(=O)[C@H](Cc1c[nH]cn1)NC(=O)CNC(=O)[C@@H](NC(=O)[C@H](C)NC(=O)[C@H](Cc1c[nH]c2ccccc12)NC(=O)[C@H](CCC(N)=O)NC(=O)[C@@H](Cc1ccccc1)NC(=O)CN1CCC(NC(=O)CN2CCN(CC(=O)O)CCN(CC(=O)O)CCN(CC(=O)O)CC2)CC1)C(C)C)C(N)=O [[^111In]In-RM2, metal not drawn] is ___
## Output 0.04

###

- assay.text: Biodistribution, PC-3 xenograft mice
- Format: in vivo, NOD SCID mice
- condition.set: female, NOD SCID, kidney, intravenous, total radioactivity; Mouse #2; single tracer; PC-3 xenograft; 7.3 h p.i.; 1.43 nmol; read-out: Biodistribution: Kidney
readout: tissue uptake at 7.3 h
Quick note: number first, unit second.

## Input Fill in: tissue uptake at 7.3 h of CC(C)C[C@H](NC(=O)C[C@H](O)[C@H](CC(C)C)NC(=O)[C@H](Cc1c[nH]cn1)NC(=O)CNC(=O)[C@@H](NC(=O)[C@H](C)NC(=O)[C@H](Cc1c[nH]c2ccccc12)NC(=O)[C@H](CCC(N)=O)NC(=O)[C@@H](Cc1ccccc1)NC(=O)CN1CCC(NC(=O)CN2CCN(CC(=O)O)CCN(CC(=O)O)CCN(CC(=O)O)CC2)CC1)C(C)C)C(N)=O [[^111In]In-RM2, metal not drawn] is ___
## Output 1.29 %ID/g

###

- assay.text: Biodistribution, CHO-K1-GRPR + CHO-K1-PSMA dual xenograft mice
- condition.set: female, NOD SCID, mouse, CHO-K1-PSMA tumor, intravenous, 2.69 nmol, total radioactivity, Biodistribution: CHO-K1-PSMA Tumor, Mouse #9; dual tracer; dual xenograft; 17.6 h p.i.; 2.69 nmol
readout: tissue uptake at 17.6 h
Quick note: number first, unit second.

## Input Fill in: tissue uptake at 17.6 h of CC(C)C[C@H](NC(=O)C[C@H](O)[C@H](CC(C)C)NC(=O)[C@H](Cc1c[nH]cn1)NC(=O)CNC(=O)[C@@H](NC(=O)[C@H](C)NC(=O)[C@H](Cc1c[nH]c2ccccc12)NC(=O)[C@H](CCC(N)=O)NC(=O)[C@@H](Cc1ccccc1)NC(=O)CN1CCC(NC(=O)CN2CCN(CC(=O)O)CCN(CC(=O)O)CCN(CC(=O)O)CC2)CC1)C(C)C)C(N)=O [[^111In]In-RM2, metal not drawn] is ___
## Output 0.09 %ID/g

Just for reference, paper PMC12298007 is where these values come from.
